Assay: PET hydrolysis product formed (TPA+MHET+BHET, UV-Vis) per mg enzyme (mmol/mg enzyme); higher = more PET depolymerisation activity; extreme values may be limits of the assay
Settings: PET substrate: cryPow; 70 °C; pH 5.5; 24 h
endpointName: PET hydrolysis product formed
I only need the number, thanks.

Query (sequence): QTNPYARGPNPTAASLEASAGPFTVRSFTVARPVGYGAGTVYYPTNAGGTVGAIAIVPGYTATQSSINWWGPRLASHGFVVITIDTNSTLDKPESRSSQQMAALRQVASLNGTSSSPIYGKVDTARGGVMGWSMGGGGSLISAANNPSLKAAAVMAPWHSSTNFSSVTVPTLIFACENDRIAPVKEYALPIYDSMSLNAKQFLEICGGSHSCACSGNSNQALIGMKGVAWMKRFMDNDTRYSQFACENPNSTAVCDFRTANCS [HotPETase] ; field requested: PET hydrolysis product formed
0.0481

// data source = the supplement of paper PMC11196671
